Measured values drawn from PubChem BioAssay AID1159580 for this set.

- assay_summary: chemical genetic growth profiling, strain panel (AID 1159580);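 further: tested at 20 µM; growth read once vehicle control cultures reached saturation at 30 °C; 1 = growth at the plate median or of vehicle wells; lower values mean less growth of the strain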
- condition_description: S. cerevisiae deletion strains, growth OD, locus YNL071W, strain lat1, stronger effect = lower value
The campaign covered roughly 5,500 compounds. About 2,000 (36%) were called active. Inconclusive results (about 18%) are left out. The list shows a part of the results.
property_name: normalized growth
Answers are plain numbers.

INSERT INTO results (molecule, measured_value) VALUES
  ('CCCCCCCCCCCCCc1ccco1', 0.621),
  ('CN(C)CCN(Cc1ccccc1)c1ccccn1', 1.01),
  ('COc1ccc(C2CNC(=O)C2)cc1OC1CCCC1 (configuration not stated)', 1.02);

Below is a list of molecules. For each, state its recorded normalized growth.
1. C[C@@H]1CC(Cl)CC[C@H]1C(=O)OC(C)(C)C (some centres not stated)
2. C=CCCCCCCCCCCCc1ccco1

A)
1. 0.985
2. 0.253

I have 2 molecules here; please give me normalized growth for each one.
1. CCN1CCCC(OC(=O)C(c2ccccc2)c2ccccc2)C1 (configuration not stated)
2. CNCCC(Oc1ccc(C(F)(F)F)cc1)c1ccccc1 (configuration not stated)

A)
1: 0.973; 2: 0.993
